Biological target: P-glycoprotein (P-gp) (Homo sapiens (Human))
Sequence (P08183 whole entry): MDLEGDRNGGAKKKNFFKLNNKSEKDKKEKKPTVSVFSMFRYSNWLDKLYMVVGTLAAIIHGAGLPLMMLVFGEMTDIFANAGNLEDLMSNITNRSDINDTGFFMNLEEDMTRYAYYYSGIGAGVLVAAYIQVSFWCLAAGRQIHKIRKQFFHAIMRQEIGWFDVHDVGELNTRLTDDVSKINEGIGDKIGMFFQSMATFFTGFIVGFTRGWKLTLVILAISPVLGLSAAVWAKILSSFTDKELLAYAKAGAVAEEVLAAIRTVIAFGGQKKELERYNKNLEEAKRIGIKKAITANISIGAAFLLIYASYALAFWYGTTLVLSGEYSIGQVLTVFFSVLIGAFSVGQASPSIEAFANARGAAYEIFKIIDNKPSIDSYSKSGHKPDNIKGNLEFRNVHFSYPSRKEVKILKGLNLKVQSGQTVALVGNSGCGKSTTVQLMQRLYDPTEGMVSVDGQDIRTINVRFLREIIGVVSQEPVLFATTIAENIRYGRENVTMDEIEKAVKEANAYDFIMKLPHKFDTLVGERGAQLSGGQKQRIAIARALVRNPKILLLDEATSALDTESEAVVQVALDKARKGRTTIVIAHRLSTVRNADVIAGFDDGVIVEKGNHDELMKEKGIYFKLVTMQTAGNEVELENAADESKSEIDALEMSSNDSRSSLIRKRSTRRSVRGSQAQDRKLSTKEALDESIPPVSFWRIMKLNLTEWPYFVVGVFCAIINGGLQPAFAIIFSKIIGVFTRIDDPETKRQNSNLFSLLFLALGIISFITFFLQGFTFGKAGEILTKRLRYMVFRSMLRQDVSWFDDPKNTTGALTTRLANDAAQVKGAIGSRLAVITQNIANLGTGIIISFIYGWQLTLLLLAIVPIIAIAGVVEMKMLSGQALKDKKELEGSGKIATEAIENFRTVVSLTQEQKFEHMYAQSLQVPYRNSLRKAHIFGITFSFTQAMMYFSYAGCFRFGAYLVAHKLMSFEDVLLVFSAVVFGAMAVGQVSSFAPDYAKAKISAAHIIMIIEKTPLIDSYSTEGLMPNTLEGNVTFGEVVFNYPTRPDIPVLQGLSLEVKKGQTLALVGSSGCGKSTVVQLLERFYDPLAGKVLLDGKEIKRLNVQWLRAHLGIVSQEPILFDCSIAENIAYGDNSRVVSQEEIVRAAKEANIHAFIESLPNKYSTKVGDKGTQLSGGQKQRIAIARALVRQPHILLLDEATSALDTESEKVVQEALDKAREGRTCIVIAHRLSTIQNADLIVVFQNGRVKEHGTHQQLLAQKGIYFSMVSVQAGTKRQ
Experiment: P-gp transport, experimental BA/AB ratio, human
Format: in vitro ADME
Conditions: LLC-PK1, 1 μM substrate concentration
parameter measured: efflux ratio at 1 μM

> print(dat)
                           substance.smiles  reported.result
1  CN(C)c1nc(C(=O)N[C@@H](c2ccc(C(F)F)cc2)C2CC2)cc(=O)[nH]1              0.8
2  CC[C@@H](NC(=O)c1cc(=O)[nH]c(N(C)C)n1)c1ccc(SC(F)(F)F)c(F)c1              0.4

[I] CNc1nc(C(=O)N[C@@H](c2ccc(SC(F)(F)F)c(F)c2)C(C)C)cc(=O)[nH]1
[II] CN(C)c1nc(C(=O)N[C@@H](c2ccc(C3CC3)cc2)C(C)(C)C)cc(=O)[nH]1
Task: Higher efflux ratio at 1 μM: I or II ? Please respond with the label that marks your chosen entry.
Result: I
(I: 4.2, II: 0.5)

[P] CN(C)c1nc(C(=O)N[C@@H](c2ccc(SC(F)(F)F)cc2)C(C)(C)C)cc(=O)[nH]1
[Q] CN(C)c1nc(C(=O)N[C@@H](c2ccc(OC(F)(F)F)c(F)c2)C2CC2)cc(=O)[nH]1
[R] C[C@@H](NC(=O)c1cc(=O)[nH]c(NC2CCC2)n1)c1ccc(C(F)(F)F)cc1
Task: Task field, ranking: reported efflux ratio at 1 μM, descending order. Put the labels in the requested order and list them out.
Result: P, R, Q
